# ASSAY METHOD TEXT: Acute toxicity in mice (oral LD50, Litchfield and Wilcoxon)
# RUN PARAMETERS: mouse, in vivo, female mice, suspended in 5% gum arabic
RECORDED ENDPOINT: LD50 (mg/kg)
Your answer is read as mg/kg, so omit the unit and give the number.

Param item = [O-][S+](Cc1nc2ccccc2[nH]1)c1ccccn1 (stereo not drawn) ; retrieve measured LD50.
3200

Same lookup for O=[N+]([O-])c1ccc([S+]([O-])Cc2nc3ccccc3[nH]2)nc1 (stereo not drawn) , please.
2400

Same lookup for O=C(c1ccccc1)c1ccc2nc(C[S+]([O-])c3ccccn3)[nH]c2c1 (stereo not drawn) , please.
3200

Same lookup for c1cnc(SCc2nc3ccccc3[nH]2)nc1 , please.
2700

---

Please respond with reported inhibition in vivo at 40 mg/kg for every item in the list.
# Tested on: gastric acid secretion
# ASSAY METHOD TEXT: Inhibition of gastric acid secretion in Shay rats (pylorus ligation)
# Assay type: in vivo, male Wistar rats
# RUN PARAMETERS: Rattus norvegicus, intraduodenal, 2 h, Dose = 40 mg/kg, i.d., two hours after pylorus ligation, read-out: Percentage inhibition of gastric acid secretion
Your answer is read as %, so omit the unit and give the number.

Param item = Cc1ccnc([S+]([O-])Cc2nc3cc(C(=O)c4ccccc4)ccc3[nH]2)c1 (stereo not shown) [Example 44] ; retrieve measured inhibition in vivo at 40 mg/kg.
66

Same lookup for [O-][S+](Cc1nc2ccccc2[nH]1)c1ccccn1 (stereo not shown) [Example 28, 2-(2-pyridylsulfinylmethyl)benzimidazole] , please.
90

Same lookup for Cc1cc2nc(CSc3ccccn3)[nH]c2cc1C [Example 6] , please.
92

Same lookup for O=C(c1ccccc1)c1ccc2nc(C[S+]([O-])c3ccccn3)[nH]c2c1 (stereo not shown) [Example 27] , please.
95

Same lookup for Cc1cnc([S+]([O-])Cc2nc3cc(C(=O)c4ccccc4)ccc3[nH]2)c(C)c1 (stereo not shown) [Example 41] , please.
80

Same lookup for O=[N+]([O-])c1ccc([S+]([O-])Cc2nc3ccccc3[nH]2)nc1 (stereo not shown) [Example 29] , please.
90

Same lookup for [O-][S+](Cc1nc2cc(Cl)ccc2[nH]1)c1ccccn1 (stereo not shown) [Example 32] , please.
92

Same lookup for [O-][n+]1ccccc1SCc1nc2ccccc2[nH]1 [Example 7] , please.
95

Same lookup for Cc1cc2nc(C[S+]([O-])c3ccccn3)[nH]c2cc1C (stereo not shown) [Example 31] , please.
96

Same lookup for Cc1cc(C)nc(SCc2nc3ccccc3[nH]2)n1 [Example 3] , please.
88

Same lookup for O=[N+]([O-])c1ccc(SCc2nc3ccccc3[nH]2)nc1 [Example 4] , please.
74

Same lookup for Cn1c(C[S+]([O-])c2ccccn2)nc2cc(C(=O)c3ccccc3)ccc21 (stereo not shown) [Example 60] , please.
75

Same lookup for CCOC(=O)n1c(C[S+]([O-])c2ccccn2)nc2ccc(C(=O)c3ccccc3)cc21 (stereo not shown) [Example 63] , please.
81

Same lookup for c1cnc(SCc2nc3ccccc3[nH]2)nc1 [Example 1, 2-(2-benzimidazolylmethylthio)pyrimidine] , please.
98

Same lookup for O=S(=O)(Cc1nc2ccc(Cl)cc2[nH]1)c1ccccn1 [Example 54] , please.
70

Same lookup for O=C(c1ccccc1)c1ccc2nc(CSc3ccccn3)[nH]c2c1 [Example 10] , please.
93

---

# Test system: gastric acid secretion
# ASSAY METHOD TEXT: Inhibition of gastric acid secretion in Shay rats (pylorus ligation)
# Assay type: in vivo, male Wistar rats
# RUN PARAMETERS: Rattus norvegicus, 2 h, intraduodenal, two hours after pylorus ligation
# Procedure: Method of Shay [Shay, H.; Komarov, S. A.; Feis, S. S.; Merange, D.; Grvenstein, M.; Siplet, H.; Gastroenterology, 5, 43 (1945)--Visscher, F. E.; Seay, P. H.; Taxelaar, A. P.; Veldkamp, W.; Vander Brook, M. J.; J. Pharmac. […] Two hours after ligation of the pyrolus, the rats are sacrificed by prolonged anesthesia with ethyl ether, and the volume of the gastric juice is measured and the total acidity determined by means of a pH meter equipped with an automatic burette. […]
Label key: 1 means ED50 under 20 mg/kg; -1 means ED50 of 20 mg/kg or more.

Find out if reported ED50 for Cc1cc2nc(C[S+]([O-])c3ccccn3)[nH]c2cc1C (centres unmarked) is less than 20 mg/kg
1

Same lookup for Cn1c(C[S+]([O-])c2ccccn2)nc2cc(C(=O)c3ccccc3)ccc21 (centres unmarked) , please.
-1

Same lookup for O=C(c1ccccc1)c1ccc2nc(C[S+]([O-])c3ccccn3)[nH]c2c1 (centres unmarked) , please.
1

Same lookup for Cc1cc2nc(CSc3ccccn3)[nH]c2cc1C , please.
1

Same lookup for O=[N+]([O-])c1ccc([S+]([O-])Cc2nc3ccccc3[nH]2)nc1 (centres unmarked) , please.
1

Same lookup for O=[N+]([O-])c1ccc(SCc2nc3ccccc3[nH]2)nc1 , please.
-1

Same lookup for Cc1cnc([S+]([O-])Cc2nc3cc(C(=O)c4ccccc4)ccc3[nH]2)c(C)c1 (centres unmarked) , please.
1

Same lookup for O=C(c1ccccc1)c1ccc2nc(CSc3ccccn3)[nH]c2c1 , please.
1

---

# ASSAY METHOD TEXT: Acute toxicity in mice (oral LD50, Litchfield and Wilcoxon)
# RUN PARAMETERS: mouse, in vivo, male mice, suspended in 5% gum arabic
Please respond with reported LD50 for every item in the list.
Your answer is read as mg/kg, so omit the unit and give the number.

Param item = c1cnc(SCc2nc3ccccc3[nH]2)nc1 [Example 1, 2-(2-benzimidazolylmethylthio)pyrimidine] ; retrieve measured LD50.
3200

Same lookup for O=[N+]([O-])c1ccc([S+]([O-])Cc2nc3ccccc3[nH]2)nc1 (stereo not drawn) [Example 29] , please.
2400

Same lookup for [O-][S+](Cc1nc2ccccc2[nH]1)c1ccccn1 (stereo not drawn) [Example 28, 2-(2-pyridylsulfinylmethyl)benzimidazole] , please.
3200

Same lookup for O=C(c1ccccc1)c1ccc2nc(C[S+]([O-])c3ccccn3)[nH]c2c1 (stereo not drawn) [Example 27] , please.
3200

---

# Tested on: gastric acid secretion
# ASSAY METHOD TEXT: Inhibition of gastric acid secretion in Shay rats (pylorus ligation)
# Format: in vivo, male Wistar rats
# RUN PARAMETERS: Rattus norvegicus, 2 h, intraduodenal, two hours after pylorus ligation
RECORDED ENDPOINT: ED50

Query ED50 on gastric acid secretion for O=S(=O)(Cc1nc2ccc(Cl)cc2[nH]1)c1ccccn1
24 mg/kg

Same lookup for c1cnc(SCc2nc3ccccc3[nH]2)nc1 , please.
13 mg/kg

Same lookup for [O-][n+]1ccccc1SCc1nc2ccccc2[nH]1 , please.
19 mg/kg

Same lookup for Cc1cc(C)nc(SCc2nc3ccccc3[nH]2)n1 , please.
16 mg/kg

Same lookup for [O-][S+](Cc1nc2ccccc2[nH]1)c1ccccn1 (centres unmarked) , please.
8 mg/kg

Same lookup for CCOC(=O)n1c(C[S+]([O-])c2ccccn2)nc2ccc(C(=O)c3ccccc3)cc21 (centres unmarked) , please.
16 mg/kg

Same lookup for [O-][S+](Cc1nc2cc(Cl)ccc2[nH]1)c1ccccn1 (centres unmarked) , please.
17 mg/kg

Same lookup for Cc1ccnc([S+]([O-])Cc2nc3cc(C(=O)c4ccccc4)ccc3[nH]2)c1 (centres unmarked) , please.
10 mg/kg
